ASSAYED_TARGET: UniProt:P14416
Sequence (P14416 whole entry): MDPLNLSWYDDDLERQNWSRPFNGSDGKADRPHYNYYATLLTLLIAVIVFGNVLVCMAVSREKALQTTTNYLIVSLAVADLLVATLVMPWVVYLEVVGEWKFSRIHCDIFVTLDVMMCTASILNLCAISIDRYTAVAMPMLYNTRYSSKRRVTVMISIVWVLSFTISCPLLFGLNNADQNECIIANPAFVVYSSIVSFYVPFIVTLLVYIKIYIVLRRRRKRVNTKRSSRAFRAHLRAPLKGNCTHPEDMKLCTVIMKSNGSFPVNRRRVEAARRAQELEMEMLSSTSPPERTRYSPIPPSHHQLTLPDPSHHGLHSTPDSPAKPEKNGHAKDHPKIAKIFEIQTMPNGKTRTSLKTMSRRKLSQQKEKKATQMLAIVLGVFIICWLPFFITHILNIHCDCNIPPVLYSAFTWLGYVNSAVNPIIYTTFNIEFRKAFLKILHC
ASSAY_METHOD_TEXT: Positive allosteric modulation of human dopamine D2S receptor expressed in CHO cell membranes assessed as stimulation of [3H]-NPA binding at 1 to 10 uM after 60 mins by beta scintillation counting analysis
Active and inactive are the calls of the source. No cut-off for these calls is given here.
MEASUREMENT_TYPE: Activity

>>> recorded_result("CC(C)C[C@H](NC(=O)[C@@H]1N[C@@H](CN=[N+]=[N-])C[C@H]1CN=[N+]=[N-])C(=O)NCC(=O)O")
"Active"
>>> recorded_result("COC(=O)CNC(=O)[C@@H](NC(=O)[C@H]1N[C@H](CN=[N+]=[N-])C[C@@H]1CN=[N+]=[N-])C(C)C")
"Active"
>>> recorded_result("CC(C)[C@H](NC(=O)[C@@H]1N[C@@H](CN=[N+]=[N-])C[C@H]1CN=[N+]=[N-])C(=O)NCC(=O)O")
"Active"
>>> recorded_result("CC(C)C[C@H](NC(=O)[C@H]1N[C@H](CN=[N+]=[N-])C[C@@H]1CN=[N+]=[N-])C(=O)NCC(N)=O")
"Active"
>>> recorded_result("COC(=O)CNC(=O)[C@@H](NC(=O)[C@@H]1N[C@@H](CN=[N+]=[N-])C[C@H]1CN=[N+]=[N-])C(C)C")
"Active"
>>> recorded_result("COC(=O)CNC(=O)[C@H](CC(C)C)NC(=O)[C@H]1N[C@H](CN=[N+]=[N-])C[C@@H]1CN=[N+]=[N-]")
"Active"
>>> recorded_result("CC(C)[C@H](NC(=O)[C@@H]1N[C@@H](CN=[N+]=[N-])C[C@H]1CN=[N+]=[N-])C(=O)NCC(N)=O")
"Active"
>>> recorded_result("CC(C)C[C@H](NC(=O)[C@@H]1N[C@@H](CN=[N+]=[N-])C[C@H]1CN=[N+]=[N-])C(=O)NCC(N)=O")
"Active"
>>> recorded_result("COC(=O)CNC(=O)[C@H](CC(C)C)NC(=O)[C@@H]1N[C@@H](CN=[N+]=[N-])C[C@H]1CN=[N+]=[N-]")
"Active"
